# ASSAYED TARGET: human cloned 5-HT6 receptors (Homo sapiens, UniProt P50406)
# Construct: expressed in transfected cells; host or cells: HeLa cells
# Sequence (P50406 whole entry): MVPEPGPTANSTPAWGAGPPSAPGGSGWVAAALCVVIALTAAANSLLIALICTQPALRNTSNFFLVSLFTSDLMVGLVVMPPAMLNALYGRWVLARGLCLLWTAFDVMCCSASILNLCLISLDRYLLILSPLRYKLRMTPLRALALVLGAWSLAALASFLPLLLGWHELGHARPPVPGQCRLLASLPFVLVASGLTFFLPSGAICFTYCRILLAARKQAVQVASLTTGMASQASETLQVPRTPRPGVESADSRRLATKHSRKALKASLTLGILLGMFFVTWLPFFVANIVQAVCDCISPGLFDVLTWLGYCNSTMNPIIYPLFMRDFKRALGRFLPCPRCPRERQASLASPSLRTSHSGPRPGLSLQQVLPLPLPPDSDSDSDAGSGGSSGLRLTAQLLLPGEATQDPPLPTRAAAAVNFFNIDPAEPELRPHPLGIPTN
# Assay type: binding
# EXPERIMENTAL SETUP: test compound dose 1000 nM; displacement of [3H]-LSD
# Protocol: This operation is repeated. The reaction is allowed to proceed in the dark for 120 min at room temperature, at which time, the bound ligand-receptor complex is filtered off on a 96 well unifilter with a Packard Filtermate® 196 Harvester. The bound complex caught on the filter disk is allowed to air dry and the radioactivity is measured in a Packard TopCount® equipped with six photomultiplier detectors, after the addition of 40.0 μl Microscint®-20 scintillant to each shallow well. […]
READOUT TYPE: inhibition at 1 µM (%)

Examples from the recorded data:
[H]/N=C(/N)NN=C(C)c1c[nH]c2ccc(NS(=O)(=O)c3ccc(-c4ccccc4)cc3)cc12 :: 96.4
CN(N=Cc1c(-c2ccccc2)n(C)c2ccccc12)C1=NCCN1 :: 99.9
Clc1ccc(-c2[nH]c3ccccc3c2C=NNC2=NCCCN2)cc1 :: 68.5
N=C(NCCO)NN=Cc1c(-c2ccc(Cl)cc2)[nH]c2ccccc12 :: 84.1
C/C(=N\NC(=N)N)c1c(-c2ccccc2)[nH]c2ccccc12 :: 93.3

a = CCCNC(=N)NN=Cc1c(-c2ccc(Cl)cc2)[nH]c2ccccc12
b = N=C(N)NN=C(Cc1ccccc1)c1c(-c2ccc(Cl)cc2)[nH]c2ccccc12
c = N=C(N)NN=C(c1c(-c2ccccc2)n(-c2ccccc2)c2ccccc12)C1CCCCC1
d = N=C(N)NN=C(Cc1ccccc1)c1c(-c2ccccc2)[nH]c2ccccc12
Please list these molecules in decreasing order of inhibition at 1 µM. Give the order by naming the labels one after another as requested.
a, b, d, c
(a: 86%, b: 49.5%, d: 24.4%, c: 8.7%)

----------
# ASSAYED TARGET: human cloned 5-HT6 receptors (Homo sapiens)
Counter-ions that a name gives are not always drawn.
READOUT TYPE: Ki (nM)

Examples from the recorded data:
CC(=NNC(=N)N)c1c(-c2ccc(Cl)cc2)[nH]c2ccccc12 :: 17
C/C(=N\NC(=N)N)c1cn(C)c2ccc(NS(=O)(=O)c3ccccc3)cc12 [Example 8, Hydrochloride] :: 2

P = C/C(=N\NC(=N)N)c1c[nH]c2ccc(NS(=O)(=O)c3ccccc3)cc12 [Example 7, Hydrochloride]
Q = CC(=NNC(=N)N)c1cn(C)c2ccc(NS(=O)(=O)c3ccc(N)cc3)cc12
Lab notebook, comparison: P versus Q , higher Ki goes to which? Provide the label of your selected option as the answer.
Q

P = CN(N=Cc1c(-c2ccccc2)n(C)c2ccccc12)C1=NCCN1
Q = CC(=NNC(=N)N)c1cn(C)c2ccc(NS(=O)(=O)c3sc4ccc(Cl)cc4c3C)cc12
Given the two records P and Q , choose the one whose Ki value is lower. Provide the label of your selected option as the answer.
Q

----------
# ASSAYED TARGET: human cloned 5-HT6 receptors (Homo sapiens)
# Construct: expressed in transfected cells; host or cells: HeLa cells
# Type: binding
# EXPERIMENTAL SETUP: test compound dose 1000 nM; displacement of [3H]-LSD
READOUT TYPE: inhibition at 1 µM (%)

a = CC(=NNC(=N)N)c1c(-c2ccc(Cl)cc2)n(Cc2ccccc2)c2ccccc12
b = CN(N=Cc1c(-c2ccccc2)[nH]c2ccccc12)C1=NCCN1
Lab notebook, comparison: a versus b , higher inhibition at 1 µM goes to which? Provide the label of your selected option as the answer.
b
(b: 96.2%, a: 22.3%)

----------
# ASSAYED TARGET: human cloned 5-HT6 receptors (Homo sapiens)
# Construct: expressed in transfected cells; host or cells: HeLa cells
# Type: binding
# EXPERIMENTAL SETUP: test compound dose 1000 nM; displacement of [3H]-LSD
READOUT TYPE: inhibition at 1 µM (%)

Clc1ccc2[nH]c3c(c2c1)C(=NNC1=NCCN1)CCC3 [Example 153] :: 97

a = CCCCCNC(=NC)NN=Cc1c(-c2ccc(Cl)cc2)[nH]c2ccccc12 [Example 124]
b = CC(=NNC(=N)N)c1c(-c2ccc(Cl)cc2)n(Cc2csc(C)n2)c2ccccc12 [Example 100]
Lab notebook, comparison: a versus b , higher inhibition at 1 µM goes to which? Provide the label of your selected option as the answer.
a

P = Cn1c(-c2ccccc2)c(C=NNC(=N)N)c2ccccc21 [Example 89]
Q = CN(N=C(C=Cc1ccccc1)c1c(-c2ccccc2)[nH]c2ccccc12)C1=NCCN1 [Example 71]
Lab notebook, comparison: P versus Q , higher inhibition at 1 µM goes to which? Provide the label of your selected option as the answer.
P

----------
# ASSAYED TARGET: human cloned 5-HT6 receptors (Homo sapiens, UniProt P50406)
# Construct: expressed in transfected cells; host or cells: HeLa cells
# Format: binding
# EXPERIMENTAL SETUP: test compound dose 1000 nM; displacement of [3H]-LSD
# Method: This operation is repeated. The reaction is allowed to proceed in the dark for 120 min at room temperature, at which time, the bound ligand-receptor complex is filtered off on a 96 well unifilter with a Packard Filtermate® 196 Harvester. The bound complex caught on the filter disk is allowed to air dry and the radioactivity is measured in a Packard TopCount® equipped with six photomultiplier detectors, after the addition of 40.0 μl Microscint®-20 scintillant to each shallow well. […]
READOUT TYPE: inhibition at 1 µM (%)

CC(=NNC(=N)N)c1c(-c2ccccc2)n(-c2ccccc2)c2ccccc12 [Example 87] :: 31.3
CN(N=C(CCc1ccccc1)c1c(-c2ccccc2)[nH]c2ccccc12)C1=NCCN1 [Example 69] :: 23
CN(N=C(Cc1ccc(Cl)cc1)c1c(-c2ccc(Cl)cc2)[nH]c2ccccc12)C1=NCCN1 [Example 73] :: 37.5

P = CC(C)CC(=NNC(=N)N)c1c(-c2ccc(Cl)cc2)[nH]c2ccccc12 [Example 62]
Q = N=C(N)NN=Cc1c(-c2ccccc2)n(-c2ccccc2)c2ccccc12 [Example 91]
Given the two records P and Q , choose the one whose inhibition at 1 µM value is lower. Provide the label of your selected option as the answer.
Q

P = CN(N=C1CCCc2[nH]c3ccc(Cl)cc3c21)C1=NCCN1 [Example 154]
Q = CN=C(NCc1ccccc1)NN=Cc1c(-c2ccc(Cl)cc2)[nH]c2ccccc12 [Example 118]
Lab notebook, comparison: P versus Q , higher inhibition at 1 µM goes to which? Provide the label of your selected option as the answer.
P
(P: 87.1%, Q: 56.2%)

----------
# ASSAYED TARGET: human cloned 5-HT6 receptors (Homo sapiens)
# Construct: expressed in transfected cells; host or cells: HeLa cells
# Format: binding
# EXPERIMENTAL SETUP: test compound dose 1000 nM; displacement of [3H]-LSD
READOUT TYPE: inhibition at 1 µM (%)

Examples from the recorded data:
Cn1c(-c2ccccc2)c(C(Cc2ccccc2)=NNC(=N)N)c2ccccc21 [Example 83] :: 31
Cn1c(-c2ccccc2)c(C(=NNC(=N)N)C2CCCCC2)c2ccccc21 [Example 79] :: 31.3
CC(=NNC(=N)N)c1cn(C)c2ccc(NS(=O)(=O)c3sc4ccc(Cl)cc4c3C)cc12 [Example 16] :: 98.7

I = N=C(N)NN=C(C=Cc1ccccc1Cl)c1c(-c2ccc(Cl)cc2)[nH]c2ccccc12 [Example 63]
II = CN=C(NN=Cc1c(-c2ccc(Cl)cc2)[nH]c2ccccc12)NC1CCCC1 [Example 116]
Given the two records I and II , choose the one whose inhibition at 1 µM value is lower. Provide the label of your selected option as the answer.
I

----------
# ASSAYED TARGET: human cloned 5-HT6 receptors (Homo sapiens)
# Construct: expressed in transfected cells; host or cells: HeLa cells
# Assay type: binding
# EXPERIMENTAL SETUP: test compound dose 1000 nM; displacement of [3H]-LSD
READOUT TYPE: inhibition at 1 µM (%)

CNC(=N)NN=Cc1c(-c2ccc(Cl)cc2)[nH]c2ccccc12 [Example 121] :: 90.5
CC(=NNC(=N)N)c1cn(C)c2ccc(NS(=O)(=O)c3ccccc3Br)cc12 [Example 25] :: 99
CN(N=Cc1c(-c2ccc(Cl)cc2)[nH]c2ccccc12)C1=NCCN1 [Example 46] :: 96.5

Data origin: patent US6951881B2
